List of inhibition at 0.123 µM values.
molecular target: HIV-1 protease (Human immunodeficiency virus type 1 group M subtype B, UniProt P04585); construct: The protease (or proteinase), consisting of only 99 amino acids, is among the smallest enzymes known; test: In vitro HIV protease inhibitory assay (HIV Protease FITC Assay); format: biochemical; conditions: HIV-1 Dose 0.123 uM; read-out: HIV-1 Protease % Inhib
PROPERTY_MEASURED: inhibition at 0.123 µM

>>> print(df.to_string())
                                    molecule       property_measured  reading
 0  C=CC(C1=C(O)CC(Cc2ccccc2)(c2ccccc2)OC1=O)c1ccccc1 (stereo not shown)  inhibition at 0.123 µM    < 10%
 1  CCC(CC1CCN(S(=O)(=O)c2ccc(C)cc2)CC1)c1cc(O)c(C(c2ccccc2)C2CC2)c(=O)o1 (stereo not shown)  inhibition at 0.123 µM    < 10%
 2  O=c1oc(CC(O)c2cccc(Cl)c2)cc(O)c1C(c1ccccc1)C1CC1 (stereo not shown)  inhibition at 0.123 µM    < 10%
 3  CCC(CCC1OCCCO1)c1cc(O)c(C(c2ccccc2)C2CC2)c(=O)o1 (stereo not shown)  inhibition at 0.123 µM    < 10%
 4  CCC(Cc1ccccc1)c1cc(O)c(C(c2cccc(NS(=O)(=O)c3ccc(OC)cc3)c2)C2CC2)c(=O)o1 (stereo not shown)  inhibition at 0.123 µM    40.5%
 5  CCCC(CC1CCCOC1)c1cc(O)c(C(c2ccccc2)C2CC2)c(=O)o1 (stereo not shown)  inhibition at 0.123 µM      35%
 6  O=c1oc(CC(O)c2ccsc2)cc(O)c1C(c1ccccc1)C1CC1 (stereo not shown)  inhibition at 0.123 µM    < 10%
 7  O=c1oc(CCc2ccc(Br)cc2)cc(O)c1C(c1ccccc1)C1CC1 (stereo not shown)  inhibition at 0.123 µM    < 10%
 8  O=c1oc(CC(O)c2ccc(F)cc2)cc(O)c1C(c1ccccc1)C1CC1 (stereo not shown)  inhibition at 0.123 µM    < 10%
 9  CCC(Cc1ccccc1)c1cc(O)c(C(c2cccc(NC(=O)Nc3ccc(Br)cc3)c2)C2CC2)c(=O)o1 (stereo not shown)  inhibition at 0.123 µM    < 10%
10  CCCC1(Cc2ccccc2)CC(O)=C(C(CCc2ccccc2)c2ccccc2)C(=O)O1 (stereo not shown)  inhibition at 0.123 µM    < 10%
11  CCC(Cc1ccccc1)c1cc(O)c(C(c2cccc(NS(=O)(=O)c3ccc(C)cc3)c2)C2CC2)c(=O)o1 (stereo not shown)  inhibition at 0.123 µM    24.7%
12  CCC(Cc1ccccc1)c1cc(O)c(C(c2cccc(NC(=O)Cc3ccccn3)c2)C2CC2)c(=O)o1 (stereo not shown)  inhibition at 0.123 µM    16.5%
13  CCC(CC(=O)N1CCOCC1)c1cc(O)c(C(c2ccccc2)C2CC2)c(=O)o1 (stereo not shown)  inhibition at 0.123 µM    < 10%
14  CCCC1(CCCc2ccccc2)CC(O)=C(C(C=Cc2ccccc2)c2ccccc2)C(=O)O1 (stereo not shown)  inhibition at 0.123 µM    < 10%
15  CC(C)C(CC1CCCOC1)c1cc(O)c(C(c2ccccc2)C2CC2)c(=O)o1 (stereo not shown)  inhibition at 0.123 µM    21.1%
